The reported numbers originate from ChEMBL document CHEMBL3046050.

Test system: Priestia megaterium
Experiment: Antimicrobial activity against Bacillus megaterium at 20 ug/ml after 24 hr by disk diffusion method
Assay type: functional
Details: read-out: IZ
reported.endpoint: zone of inhibition at 20 µg/mL (mm)
Give the number; mm is assumed, so skip it.

Entry O=[N+]([O-])c1ccccc1N1C(c2ccccc2)C12C(c1ccccc1)=Nc1ccccc12 (stereo not drawn) has what zone of inhibition at 20 µg/mL?
17.8

Follow-up item: Oc1cccc(N2C(c3ccccc3)C23C(c2ccccc2)=Nc2ccccc23)c1 (stereo not drawn)
10.5

Now consider COc1cccc(N2C(c3ccccc3)C23C(c2ccccc2)=Nc2ccccc23)c1 (stereo not drawn) .
17.7
